// data source = PubChem BioAssay (NCI)

experiment: NCI Yeast Anticancer Drug Screen. Data for the mec2-1 strain (AID 157)
condition.set: S. cerevisiae mec2-1 strain, at 50.0 µM, hits give high values
This is part of a sample that, as a whole, favours compounds with a hit. Of some 79,000 tested, about 15% had one in any assay.
attribute.measured: growth inhibition (%)
Form entry: value (%) — number only.

Data request, read-out growth inhibition, for CC1(C)CCC(=O)OC1C[N+](=O)[O-] (configuration not stated)
-10.8

Do the same for CC(=O)NCC(O)c1ccc([N+](=O)[O-])cc1 (configuration not stated) please
-31.1

Do the same for "CCOC(CN=Cc1ccc2c(c1)Sc1ccccc1O2)OCC" please
46.1

Do the same for "CCOC(=O)C(=O)C(=O)NN(C)C1=NCCN1" please
-2.05

Do the same for CC1(O)Oc2c(cc(C(C)(C)C)cc2C(C)(C)C)C1=O (configuration not stated) please
-10.1

Do the same for "CCN(CC)CC" please
-6.2

Do the same for "O=C1NC2CCC(NC(=O)N1c1ccccc1)C1=C2C1" please
-8.85

----------
experiment: NCI Yeast Anticancer Drug Screen. Data for the mec2-1 strain (AID 157)
condition.set: S. cerevisiae mec2-1 strain, at 50.0 µM, hits give high values
This is part of a sample that, as a whole, favours compounds with a hit. Of some 79,000 tested, about 15% had one in any assay.
Kindly state growth inhibition for each of the entries shown.
Form entry: value (%) — number only.

Data request, read-out growth inhibition, for "CCOC(=O)C(CCC#N)(NC(C)=O)C(=O)OCC"
-2.35

Do the same for "S=C(SCc1nc(-c2ccc(Cl)cc2)no1)N1CCSCC1" please
-24.9

Do the same for "COC(=O)/C=C(\C(=O)c1ccccc1)c1ccccc1" please
4.25

Do the same for CCCc1cc(=O)oc2c3c(c4c(c12)OC(C)(C)C=C4)O[C@H](C)[C@@H](C)C3O (some centres not stated) please
9.3

Do the same for COC(=O)C1CN=CN1CCc1ccccc1 (configuration not stated) please
-10.6

Do the same for "Cc1ccc(C#N)c2c1CCC2" please
-10.7

Do the same for "COc1cc(CO)c(CO)cc1OC" please
-3.2

Do the same for c1ccc(CNC(Cc2ccccc2)c2ccc(OCc3ccccc3)cc2)cc1 (configuration not stated) please
-17.6

Do the same for "O=[N+]([O-])c1cc(Cl)cc2c1nc(NCCCO)c1ccccc12" please
7.35

Do the same for CC1=C(C)C2C3C(=O)NC(=O)C3C1C1C3C(=O)NC(=O)C3C21 (configuration not stated) please
-7.75

Do the same for "O=C1c2ccccc2C(=O)N1CC(F)(F)F" please
-4.75

Do the same for CC(=O)NC(CSCN(C)c1nc(N(C)C)nc(N(C)C)n1)C(=O)O (configuration not stated) please
-3.45

----------
Kindly state growth inhibition for each of the entries shown.
experiment: NCI Yeast Anticancer Drug Screen. Data for the cln2 rad14 strain (AID 165);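 note: 0% = growth equal to vehicle treated cultures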
condition.set: S. cerevisiae cln2 rad14 strain, at 50.0 µM, hits give high values
The panel holds about 79,000 compounds, 15% with a hit somewhere; the sample as a whole holds those more often.
Form entry: value (%) — number only.

Data request, read-out growth inhibition, for "O=c1[nH]c2c(Cl)c(Cl)cc(Cl)c2o1"
48.2

Do the same for "CCCSC(=O)Nc1ccc(Cc2ccc(NC(=O)SCCC)cc2)cc1" please
21.8

Do the same for "Nc1ccccc1Sc1ccc(C(=O)O)cc1[N+](=O)[O-]" please
-3.55

Do the same for O=C(c1ccc2c(c1)OCO2)C(O)c1ccc(Cl)cc1 (configuration not stated) please
-16.1

Do the same for CC1(C)CCC(=O)OC1C[N+](=O)[O-] (configuration not stated) please
11.8

Do the same for "COc1ccccc1NC(=O)C1=C(C)NC(C)=C(C(=O)Nc2ccccc2OC)C1c1ccc(C(C)C)cc1" please
29.6

Do the same for "c1ccc(CCCCc2ccccc2)cc1" please
6.4

Do the same for "CCOC(=O)c1sc(SC)nc1NC(=O)c1ccc([N+](=O)[O-])cc1" please
-1.3

Do the same for "C1=C(c2ccccc2)c2ccccc2/C1=N/Nc1ccccc1" please
2.3

Do the same for "Cc1c(N2CCCC2)cc2c(c1-n1cccc1)C(C)(C)CC2(C)C" please
16.3

Do the same for C/C=C(\CC)C(C#N)O[Si](C)(C)C (configuration not stated) please
6.5

Do the same for "C=CCNC(=S)Nc1ccccc1" please
-5.1

----------
experiment: NCI Yeast Anticancer Drug Screen. Data for the mlh1 rad18 strain (AID 175)
condition.set: S. cerevisiae mlh1 rad18 strain growth inhibition; at 50.0 µM
Compounds without any hit were thinned out: in the full panel of roughly 79,000, 15% have a hit. Calls of active or inactive are those of the source. No stated cut-off is given here; in the data, active means growth inhibition above about 70%; inactive means the rest.
Result category, one only: active, inactive

Record request — test call for CC(=O)N/N=C1/NN(C(C)=O)C2(S1)C(=O)Nc1ccc(C)cc12 (stereo not given)
inactive

Do the same for Cc1c(C(C)C(=O)O)c2ccccc2n1C (stereo not given) please
inactive

Do the same for "Cc1cc2c(cc1C)-c1nn(-c3ccccc3)c(-c3ccc(Cl)cc3)c1CCO2" please
inactive

Do the same for "CCC(=O)c1cccc(-c2ccccc2)c1C" please
inactive

Do the same for "Cc1c[n+]([O-])cc(C)c1N=Nc1ccc(N(C)C)cc1" please
inactive

Do the same for Nc1nc(N)c2cc(N3CCCC3c3ccc(Cl)cc3)ccc2n1 (stereo not given) please
active

Do the same for CCCc1cc(=O)oc2c3c(c4c(c12)OC(C)(C)CC4)O[C@H](C)C(C)[C@@H]3O (stereo not given in full) please
inactive

Do the same for Cc1ccc(S(=O)(=O)OCC2CCC(=O)N2)cc1 (stereo not given) please
inactive

Do the same for "CCCCCCCCCC1=C(C#N)C(=O)OCCN1C" please
inactive

Do the same for "CC(=O)Oc1cc2c3ccccc3ccc2c2ccccc12" please
inactive

Do the same for "N#Cc1ccc(-n2cccc2)cc1" please
inactive

Do the same for O=C(O)C12C3CCC(CC3)C1(C(=O)O)C1CCC2C1 (stereo not given) please
inactive

Do the same for CSc1ncc2c(n1)-c1ccccc1OC2N1CCCCC1 (stereo not given) please
inactive

Do the same for "O=C(Nc1c(C(=O)NC2CCCCC2)[nH]c(=O)[nH]c1=O)c1ccc(Cl)cc1" please
inactive

Do the same for "O=C(OCCCCNC1CCCCC1)c1ccc([N+](=O)[O-])cc1" please
inactive

Do the same for "N#CCCCO" please
inactive

Do the same for CC(O)C(NC(=O)c1cnc(OCc2ccccc2)nc1N)C(=O)O (stereo not given) please
inactive

Do the same for O=C1NC(N2CCCC(CO)C2)=N/C1=C\c1ccc(Cl)cc1 (stereo not given) please
inactive

Do the same for "CCOC(=O)CC(=O)Cc1oc2c(C(C)=O)c(O)c(C)c(O)c2c1C" please
inactive

Do the same for NC(=O)N/N=C(\CC1OC(=O)c2ccccc21)c1ccc([N+](=O)[O-])cc1 (stereo not given) please
inactive

Do the same for "CC(C)C(=O)N(C(C)C)C(C)C" please
inactive

Do the same for "CC(=O)NC(C(=O)Nc1ccccc1)=C(C)C" please
inactive

Do the same for "O=C(CC(=O)N1CCOCC1)N1CCOCC1" please
inactive

Do the same for C#CCOCC12C=CC(O1)C1C(=O)OCC12 (stereo not given) please
inactive

Do the same for "Cc1nc2nc(N)nnc2c(=O)[nH]1" please
inactive

Do the same for CCCC/C=C(\C)C(C)(C#N)C(=O)OCC (stereo not given) please
inactive

Do the same for "COC(=O)c1ccccc1/C=C1\SC(=S)NC1=O" please
inactive

Do the same for "CCC(=O)c1ccc(O)c(C)c1" please
inactive

Do the same for "O=C(O)CCCCC(=O)c1cc(O)ccc1O" please
inactive

Do the same for CC1C(=O)CCC2CCCCC21 (stereo not given) please
inactive

Do the same for "CSc1cc(C)n2nnnc2n1" please
inactive

Do the same for CCOC(=O)C1CC1Cc1ccccc1 (stereo not given) please
inactive

Do the same for "O=C(/C=C\c1ccc(Cl)cc1)OCCCCOC(=O)/C=C/c1ccc(Cl)cc1" please
inactive

Do the same for CCOC(=O)C(C#N)(Cc1c(-c2ccccc2)[nH]c2ccccc12)NC(C)=O (stereo not given) please
inactive

Do the same for "CCN(CC)CCC(=O)N1C/C(=C/c2ccccc2)C(=O)/C(=C\c2ccccc2)C1" please
inactive

Do the same for "CCC1(CC)SCc2nc3ccccc3n21" please
inactive

Do the same for CCCCCCCCCCCCOC1C(COCCN2CCCCC2)OC2OC(C)(C)OC21 (stereo not given) please
active

Do the same for O=S(=O)(O)C(O)C(c1ccccc1)c1ccccc1 (stereo not given) please
inactive

Do the same for "CCN(/C=C/C=C(C#N)C#N)CC" please
inactive

Do the same for Cc1cccc2c1CCC21OC(=O)c2c1cc(F)c1ccccc21 (stereo not given) please
inactive

Do the same for "NC(=O)SCC(=O)Nc1ccc2cccc3c2c1CC3" please
active

Do the same for O=[N+]([O-])c1ccc(NC2C(O)OC(CO)C(O)C2O)c([N+](=O)[O-])c1 (stereo not given) please
inactive

Do the same for "Cc1ccc(NC(=O)NCCCCCCNC(=O)Nc2ccc(C)cc2)cc1" please
inactive

Do the same for CS(=O)CC(=N\N)/C(CS(C)=O)=N/N (stereo not given) please
inactive

Do the same for Cc1c(Cl)ccc2c1NC(=O)C2(O)CC(=O)c1ccccc1 (stereo not given) please
inactive

Do the same for "CC(C)(C)C(=O)CC(=O)C(C)(C)C.CC(C)(C)C(=O)CC(=O)C(C)(C)C.CC(C)(C)C(=O)CC(=O)C(C)(C)C.[Co]" please
inactive

Do the same for "CCOC(=O)c1sc(N)nc1C" please
inactive

Do the same for "CCN(CC)C(=O)CN" please
inactive

Do the same for CCN(CC)C(=S)N1C(=O)C2C3CCC(O3)C2C1=O (stereo not given) please
inactive

Do the same for CN(C)CC1CCc2ccccc2C1=O (stereo not given) please
inactive
